Test system: P. falciparum 3D7
Test: Inhibition of in vitro P. falciparum culture, [3H]-hypoxanthine uptake, 3D7
Assay type: cell-based
Conditions: Plasmodium falciparum, 3D7, Erythrocyte; [3H]-hypoxanthine uptake by parasite infected erythrocytes; read-out: 3D7 IC50
Protocol: P. falciparum strains D10, 3D7, HB3, and Dd2 were obtained from the Malaria Research and Reference Reagent Resource Center (Manassas, Va.). The parasite strains were maintained in vitro by method of Trager and Jensen. The inhibition of P. falciparum growth in the presence of drug was assessed by the relative reduction of [^3H]-hypoxanthine uptake as previously described. […]
Below, each entry is listed alongside its reported IC50.
Please answer in the form of a number followed by its unit of measurement.

Examples with their reported IC50 follow.
Cc1ccccc1/C=C/c1cc(O)c2ccccc2n1 [Compound 2]; 320 nM
CCc1nc(N)nc(N)c1-c1ccc(Cl)cc1 [Pyrimethamine, reference compound]; 36 nM
CCOC(=O)c1[nH]c(C)c(Cc2ccc(OCC)cc2)c1C [Compound 6]; 770 nM

Attention now shifts to the item below.
// fetch IC50 given entry CCCNC(=O)c1ccc(-n2c(C)cc3ccccc32)s1 [Compound 1]
470 nM

###

test system: P. falciparum 3D7; test: Inhibition of in vitro P. falciparum culture, [3H]-hypoxanthine uptake, 3D7; assay type: cell-based; settings: Plasmodium falciparum, 3D7, Table 2b; read-out: 3D7 EC50
recorded-endpoint: pEC50
// pEC50: -log10(molar conc.)

Check out these entries, answers already filled in.
O=C(NC1CC1)c1ccc(-n2cnc3ccccc32)s1 [Compound 23]; 7.10
CCNC(=O)c1ccc(-n2cnc3ccccc32)s1 [Compound 25]; 6.99
Cc1nc2cc(C(F)(F)F)ccc2n1-c1ccc(C(=O)NC2CC2)s1 [Compound 64]; 8.10
CCCNC(=O)c1ccc(-n2c(C)nc3ccccc32)s1 [Compound 12]; 6.20
Cc1nc2ccccc2n1-c1ccc(C(=O)NC2CC2)s1 [Compound 31]; 7.18

# context switch: different compound, same pEC50
Query pEC50 for CCCc1nc2ccccc2n1-c1ccc(C(=O)NCC)s1 [Compound 59]
6.42

###

target: pfDHODH (Plasmodium falciparum (isolate 3D7), UniProt Q08210); assay: DHODH chromogen reduction (DCIP) assay, pfDHODH; type: biochemical, P. falciparum; details: Table 2b; read-out: pfDHODH IC50
Sequence (Q08210 159-565 limits assumed): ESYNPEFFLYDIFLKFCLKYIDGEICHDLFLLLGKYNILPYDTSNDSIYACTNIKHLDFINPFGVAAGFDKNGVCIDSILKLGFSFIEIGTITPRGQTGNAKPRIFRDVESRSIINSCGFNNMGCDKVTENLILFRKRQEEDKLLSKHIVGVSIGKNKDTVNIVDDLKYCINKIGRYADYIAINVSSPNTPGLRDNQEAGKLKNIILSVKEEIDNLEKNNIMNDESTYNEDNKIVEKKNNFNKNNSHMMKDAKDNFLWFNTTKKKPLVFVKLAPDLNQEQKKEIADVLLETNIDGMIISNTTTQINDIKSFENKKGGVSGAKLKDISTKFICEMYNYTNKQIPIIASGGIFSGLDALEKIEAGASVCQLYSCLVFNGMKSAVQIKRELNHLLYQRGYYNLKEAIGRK
recorded-endpoint: pIC50
Note: pIC50 values are expressed as the negative base-10 logarithm of concentration in M.

CC[C@H](C)NC(=O)c1ccc(-n2cnc3ccccc32)s1 [Compound 37]; 4.75

Indicate the recorded pIC50 value for this compound: COc1ccc2c(c1)nc(C)n2-c1ccc(C(=O)NC2CC2)s1 [Compound 39]
6.67

Answer with the recorded pIC50 for the compound listed here: Cc1nc2ccccc2n1-c1ccc(C(=O)NC2CC2)s1 [Compound 31]
7.00

Return reported pIC50. Input compound: Cc1nc2cc(F)ccc2n1-c1ccc(C(=O)NC2CC2)s1 [Compound 43]
6.98

Input CCNC(=O)c1ccc(-n2cnc3ccccc32)s1 [Compound 25] , output reported pIC50.
6.84

###

Item-by-item account of EC50
test system: P. falciparum 3D7; assay: Inhibition of in vitro P. falciparum culture, [3H]-hypoxanthine uptake, 3D7; format: cell-based; details: Plasmodium falciparum, 3D7, Table 2b; read-out: 3D7 EC50

Quick one: give measured EC50 for `c1ccc2oc(-c3ccc(-c4nc5ccccc5o4)s3)nc2c1`
> 5 µM

Provide only the value of recorded EC50 for `Cn1c(-c2ccc(-c3nc4ccccc4n3C)s2)nc2ccccc21`
> 5 µM

Answer with the recorded EC50 of `O=C(c1ccc(-n2cnc3ccccc32)s1)N1CCCCC1` only.
> 20 µM
